The measurements presented in this section are drawn from ChEMBL document CHEMBL4819055.

Molecular target: Indoleamine 2,3-dioxygenase 1 (Homo sapiens, UniProt P14902)
Sequence (P14902 whole entry): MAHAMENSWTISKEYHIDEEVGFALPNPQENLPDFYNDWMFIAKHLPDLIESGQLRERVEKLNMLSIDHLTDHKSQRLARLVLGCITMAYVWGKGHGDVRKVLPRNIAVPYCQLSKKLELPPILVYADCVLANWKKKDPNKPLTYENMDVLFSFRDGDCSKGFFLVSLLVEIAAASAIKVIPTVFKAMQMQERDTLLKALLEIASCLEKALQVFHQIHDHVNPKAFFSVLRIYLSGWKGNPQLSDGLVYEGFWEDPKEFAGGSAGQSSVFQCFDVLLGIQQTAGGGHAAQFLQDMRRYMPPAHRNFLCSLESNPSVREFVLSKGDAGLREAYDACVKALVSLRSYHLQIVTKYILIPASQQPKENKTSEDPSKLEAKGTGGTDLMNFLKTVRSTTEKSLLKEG
Test: Inhibition of IDO1 (unknown origin) assessed as reduction in kynurenine formation using L-tryptophan as substrate by absorbance based analysis
measure: IC50 (µM)
Write the number in µM without appending the unit.

Prompt: What does the record list as IC50 for `O/N=C(/Nc1cccc(Br)c1)c1ccc2oc3ccccc3c2c1` ?
Completion: 1.3

Prompt: What IC50 value was documented for this compound, `O/N=C(/Nc1ccc(F)c(Cl)c1)c1ccc2occc2c1` ?
Completion: 5.2

Prompt: Which IC50 value belongs to `O/N=C(/Nc1ccc(F)c(Br)c1)c1ccc2oc3ccccc3c2c1` ?
Completion: 2.4

Prompt: Dear colleague, I am looking for the recorded IC50 of the following compound: `O/N=C(/NCc1cccc(Cl)c1)c1ccc2oc3ccccc3c2c1`
Completion: 3.6

Prompt: // IC50 lookup, key: `O/N=C(/Nc1ccc(F)c(Cl)c1)c1ccc2oc3ccccc3c2c1`
Completion: 9.6

Prompt: Param item = `O/N=C(/Nc1cccc(Br)c1)c1ccc2oc(COCC3CC3)cc2c1` ; retrieve measured IC50.
Completion: 0.4

Prompt: Would you mind telling me what IC50 value was observed for `O/N=C(/NCc1ccc(F)c(Cl)c1)c1ccc2occc2c1` ?
Completion: 22

Prompt: So what's the measured IC50 for this one? `O/N=C(/Nc1cccc(Cl)c1)c1ccc2occc2c1`
Completion: 0.69

Prompt: Any idea what IC50 was measured for `O/N=C(/Nc1cccc(F)c1)c1ccc2occc2c1` ?
Completion: 32.7

Prompt: For the compound shown here, `O/N=C(/Nc1ccc(F)c(C(F)(F)F)c1)c1ccc2occc2c1` , give the reported IC50.
Completion: 1.2

Prompt: Reported IC50 for `O/N=C(/Nc1cccc(Br)c1)c1ccc2occc2c1` : what is it?
Completion: 0.44

Prompt: Which IC50 reading was recorded for the compound `COCc1cc2cc(/C(=N\O)Nc3cccc(Cl)c3)ccc2o1` ?
Completion: 1

====

Target: UniProt:P14902
Test: Inhibition of IDO1 in IFNgamma-stimulated human HeLa cells assessed as reduction in kynurenine formation using L-tryptophan as substrate by absorbance based analysis
The label condition met is reserved for IC50 strictly under 6 µM; condition not met covers values equal to or above it.

Prompt: Hi there! Is IC50 for `O/N=C(/Nc1ccc(Cl)cc1)c1ccc2occc2c1` below 6 µM, do you know?
Completion: condition not met

Prompt: Is the reported IC50 for `O/N=C(/NCc1ccc(F)c(Cl)c1)c1ccc2occc2c1` strictly below 6 µM?
Completion: condition not met

Prompt: Strictly below 6 µM in IC50? `O/N=C(/Nc1ccc(F)c(C(F)(F)F)c1)c1ccc2occc2c1`
Completion: condition met

Prompt: is_below(IC50, 6 µM) for `O/N=C(/Nc1cccc(F)c1)c1ccc2oc(-c3ccccc3)cc2c1` ?
Completion: condition not met

Prompt: Please check: IC50 for `O/N=C(/Nc1ccc(F)c(Br)c1)c1ccc2occc2c1` , strictly under 6 µM or not?
Completion: condition met

Prompt: I'd appreciate it if you could check whether `O/N=C(/Nc1cccc(Cl)c1)c1ccc2oc(COCC3CC3)cc2c1` has IC50 smaller than 6 µM.
Completion: condition not met

Prompt: Threshold test, IC50 < 6 µM: `O/N=C(/NCc1cccs1)c1ccc2occc2c1`
Completion: condition not met

Prompt: Does the reported IC50 of the following compound sit strictly below 6 µM? `O/N=C(/NCc1ccco1)c1ccc2occc2c1`
Completion: condition not met

Prompt: Lab note: IC50 threshold 6 µM. Does this compound come in strictly under it? `O/N=C(/NCc1ccccc1)c1ccc2occc2c1`
Completion: condition not met

Prompt: Find out if reported IC50 for `O=C(NCC1CCCCC1)c1cccc(N/C(=N/O)c2ccc3occc3c2)c1` is less than 6 µM
Completion: condition not met

Prompt: For this compound, is IC50 lower than 6 µM? `O/N=C(/Nc1ccc(F)c(Cl)c1)c1ccc2occc2c1`
Completion: condition met

Prompt: # strict comparison: is reported IC50 < 6 µM? input = `O/N=C(/NCc1cccc(Cl)c1)c1ccc2occc2c1`
Completion: condition met

====

Target: Indoleamine 2,3-dioxygenase 1 (Homo sapiens, UniProt P14902)
Test: Inhibition of IDO1 in IFNgamma-stimulated human HeLa cells assessed as reduction in kynurenine formation using L-tryptophan as substrate by absorbance based analysis
I'd appreciate it if you marked entries rule met when IC50 is lower than 10 µM and rule not met when it is not.

Prompt: I wonder whether `O/N=C(/Nc1cccc(COc2ccccc2)c1)c1ccc2occc2c1` has IC50 below 10 µM. Can you tell?
Completion: rule not met

Prompt: Strictly below 10 µM: is that where IC50 of `O/N=C(/Nc1ccc(F)c(Cl)c1)c1ccc2oc3ccccc3c2c1` sits?
Completion: rule not met

Prompt: Confirm or reject: IC50 of `COCc1cc2cc(/C(=N\O)Nc3cccc(F)c3)ccc2o1` lies strictly below 10 µM
Completion: rule met

Prompt: Answer whether the compound `O/N=C(/Nc1ccc(F)c(F)c1)c1ccc2occc2c1` has IC50 strictly less than 10 µM
Completion: rule not met

Prompt: # check: IC50 < 10 µM for `CCCCOc1cccc(N/C(=N/O)c2ccc3occc3c2)c1`
Completion: rule not met

Prompt: Threshold test, IC50 < 10 µM: `O/N=C(/Nc1cccc(Br)c1)c1ccc2oc3ccccc3c2c1`
Completion: rule not met

Prompt: Hello, is IC50 of the following compound strictly smaller than 10 µM? `CC(=O)c1cccc(N/C(=N/O)c2ccc3occc3c2)c1`
Completion: rule not met

Prompt: Find out if reported IC50 for `O/N=C(/Nc1cccc(C(F)(F)F)c1)c1ccc2occc2c1` is less than 10 µM
Completion: rule met

Prompt: Would you kindly verify if IC50 of `O/N=C(/Nc1cccc(Cl)c1)c1ccc2oc(-c3ccccc3)cc2c1` is strictly less than 10 µM?
Completion: rule not met

Prompt: Consider `O/N=C(/Nc1ccccc1)c1ccc2occc2c1` . Does its IC50 lie strictly below 10 µM?
Completion: rule not met

Prompt: Quick check: IC50 of `COCc1cc2cc(/C(=N\O)Nc3cccc(Br)c3)ccc2o1` under 10 µM?
Completion: rule met

====

Target: Indoleamine 2,3-dioxygenase 1 (Homo sapiens, UniProt P14902)
Experiment: Inhibition of IDO1 (unknown origin) assessed as reduction in kynurenine formation using L-tryptophan as substrate by absorbance based analysis
I'd appreciate it if you could supply IC50 values for the items below.
Express the result in nM but write the number alone.

Prompt: Look at this molecule and give its reported IC50. `OCc1cc2cc(/C(=N\O)Nc3cccc(Cl)c3)ccc2o1`
Completion: 8000

Prompt: For `O/N=C(/Nc1cccc(C(F)(F)F)c1)c1ccc2occc2c1` , what is its reported IC50?
Completion: 1200

Prompt: Any idea what its IC50 is? The molecule is `O/N=C(/Nc1ccc(F)c(Br)c1)c1ccc2occc2c1`
Completion: 1600

Prompt: Consider the molecule `O/N=C(/Nc1ccc(F)c(F)c1)c1ccc2occc2c1` and give its measured IC50.
Completion: 22700

Prompt: Fill in the blank: the reported IC50 of `O/N=C(/Nc1cccc(F)c1)c1ccc2oc(-c3ccccc3)cc2c1` is ____.
Completion: 11000

Prompt: Give its IC50 value. Item: `O/N=C(/Nc1cccc(F)c1)c1ccc2oc(COCC3CC3)cc2c1`
Completion: 2200

Prompt: Requested field: IC50. Item: `O/N=C(/Nc1cccc(Cl)c1)c1ccc2oc(-c3ccccc3)cc2c1`
Completion: 900

Prompt: Consider the molecule shown here: `OCc1cc2cc(/C(=N\O)Nc3cccc(F)c3)ccc2o1` What is its recorded IC50?
Completion: 1700

Prompt: Which IC50 reading was recorded for the molecule `O/N=C(/Nc1cccc(Cl)c1)c1ccc2oc(COCC3CC3)cc2c1` ?
Completion: 1500

Prompt: Look at this molecule and give its reported IC50. `COCc1cc2cc(/C(=N\O)Nc3cccc(Br)c3)ccc2o1`
Completion: 930

Prompt: Returns the measured IC50 for the input molecule. Input: `OCc1cc2cc(/C(=N\O)Nc3cccc(Br)c3)ccc2o1`
Completion: 710

Prompt: What measured IC50 goes with `COCc1cc2cc(/C(=N\O)Nc3cccc(F)c3)ccc2o1` ?
Completion: 7100

Prompt: Fill blank: measured IC50 of the molecule `O/N=C(/Nc1cccc(-c2ccccc2)c1)c1ccc2occc2c1` is ____.
Completion: 11000

Prompt: // query IC50 value for entry `O/N=C(/Nc1cccc(Cl)c1)c1ccc2oc3ccccc3c2c1`
Completion: 1800

Prompt: Suppose we examine the molecule `O/N=C(/Nc1cccc(Br)c1)c1ccc2oc(-c3ccccc3)cc2c1` ; what IC50 value has been reported?
Completion: 900
